Molecular target: T1, WT G-CSF, purified from insect cells, tag cleaved (human, UniProt P09919 31-206)
T1 construct: protein of the SPR; also called G-CSFWT; wild type G-CSF
T1 sequence: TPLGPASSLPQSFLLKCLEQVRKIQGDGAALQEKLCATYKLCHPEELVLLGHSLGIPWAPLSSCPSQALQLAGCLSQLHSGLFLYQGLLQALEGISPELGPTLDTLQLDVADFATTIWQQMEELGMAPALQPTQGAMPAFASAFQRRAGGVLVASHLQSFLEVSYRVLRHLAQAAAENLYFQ
Test: SPR (Biacore T200), single-cycle kinetics
Measurement label: binding result

Binder: design 134 G-CSFR(Ig-CRH)E, tag cleaved (receptor, also called design 137 G-CSFR(Ig-CRH)E) SMGCGHISVSAPIVHLGDPITASCIIKQNCSHLDPEPQILWELGAELQPGGRQQRLSDGTQESIITLPHLNHTQAFLSCSLNWGNSLQILDQVELRAGYPPAIPHNLSCLMNLTTSSLICQWEPGPETHLPTSFTLKSFKSEGNCQTQGDSILDCVPKDGQSHCSIPDKHLLLYQNMGIWVQAENALGTSMSPQLCLDPMDVVKLEPPMLRTMDPSPEAAPPQAGCLQLSWEPWQPGLHINQKCELRHKPQRGEASWALVGPLPLEALQYELCGLLPATAYTLQIRCIRWPLPGHWSDWSPSLELRTTE
Endpoint value: no binding

Binder: design 304 G-CSFR(Ig-CRH)E, tag cleaved (receptor) SMGCGHISVSAPIVHLGDPITASCIIKQNCSHLDPEPQILWELGAELQPGGRQQRLSDGTQESIITLPHLNHTQAFLSCSLNWGNSLQILDQVKLRAGYPPAIPHNLSCLMNLTTSSLICQWEPGPETHLPTSFTLKSFKSRGNCQTQGDSILDCVPKDGQSHCSIPDKHLLLYQNMGIWVQAENALGTSMSPQLCLDPMDVVKLEPPMLRTMDPSPEAAPPQAGCLQLSWEPWQPGLHINQKCELRHKPQRGEASWALVGPLPLEALQYELCGLLPATAYTLQIRCIRWPLPGHWSDWSPSLELRTTE
Endpoint value: no binding
